# Test system: UACC-257
# protocol_text: Antitumor activity against human UACC257 cells assessed as cell growth at 0.1 uM
# Type: functional
# stated_conditions: read-out: Activity
Below is a list of entries, each paired with its recorded growth at 0.1 µM value.
reported_property: growth at 0.1 µM (%)

COc1cc(OC)nc(NC(=O)CSc2nnc(-c3cccnc3SCc3ccccc3)o2)n1 ... 105
CN1CCN(C(=O)CSc2nnc(-c3cccnc3SCc3ccccc3)o2)CC1 ... 96.8
Cc1cnc(NC(=O)CSc2nnc(-c3cccnc3SCc3ccccc3)o2)s1 ... 94.9
c1ccc(CSc2ncccc2-c2nnc(SCCN3CCOCC3)o2)cc1 ... 147
Cc1ccc2sc(-c3ccc(NC(=O)CSc4nnc(-c5cccnc5SCc5ccccc5)o4)cc3)nc2c1 ... 113
O=C(CSc1nnc(-c2cccnc2SCc2ccccc2)o1)Nc1nc(Cl)cc(Cl)n1 ... 113

====

# Test system: HL-60
# protocol_text: Antitumor activity against human HL60(TB) cells assessed as cell growth at 0.1 uM
# Type: functional
# stated_conditions: read-out: Activity
Examples of compounds with documented growth at 0.1 µM follow.
reported_property: growth at 0.1 µM (%)

c1ccc(CSc2ncccc2-c2nnc(SCCN3CCOCC3)o2)cc1 ... 101
O=C(CSc1nnc(-c2cccnc2SCc2ccccc2)o1)Nc1nc(Cl)cc(Cl)n1 ... 98.3
Cc1cnc(NC(=O)CSc2nnc(-c3cccnc3SCc3ccccc3)o2)s1 ... 49.8
CN1CCN(C(=O)CSc2nnc(-c3cccnc3SCc3ccccc3)o2)CC1 ... 70.3
Cc1ccc2sc(-c3ccc(NC(=O)CSc4nnc(-c5cccnc5SCc5ccccc5)o4)cc3)nc2c1 ... 97.3
COc1cc(OC)nc(NC(=O)CSc2nnc(-c3cccnc3SCc3ccccc3)o2)n1 ... 97.3

====

Measured MIC, listed per entry.
# Tested on: Candida albicans
# protocol_text: Antimicrobial activity against Candida albicans MTCC 227 assessed as growth inhibition measured after overnight incubation by broth dilution method
# Assay type: functional
reported_property: MIC (µg/mL)

O=C(CSc1nnc(-c2cccnc2SCc2ccccc2)o1)Nn1cnnc1 ... 100
Cc1cnc(NC(=O)CCl)s1 ... 200
COc1cc(OC)nc(NC(=O)CCl)n1 ... 500
Cc1ccc2sc(-c3ccc(NC(=O)CCl)cc3)nc2c1 ... 500
O=C(CCl)Nn1cnnc1 ... 1000
N#CSc1ccc2nc(NC(=O)CSc3nnc(-c4cccnc4SCc4ccccc4)o3)sc2c1 ... 500
CN1CCN(C(=O)CCl)CC1 ... 1000

====

# System: UO-31
# protocol_text: Antitumor activity against human UO31 cells assessed as cell growth at 0.1 uM
# Assay type: functional
# stated_conditions: read-out: Activity
We begin with a simple list: items and their reported growth at 0.1 µM.
reported_property: growth at 0.1 µM (%)

c1ccc(CSc2ncccc2-c2nnc(SCCN3CCOCC3)o2)cc1 ... 89.4
Cc1cnc(NC(=O)CSc2nnc(-c3cccnc3SCc3ccccc3)o2)s1 ... 22.2
COc1cc(OC)nc(NC(=O)CSc2nnc(-c3cccnc3SCc3ccccc3)o2)n1 ... 80.6
CN1CCN(C(=O)CSc2nnc(-c3cccnc3SCc3ccccc3)o2)CC1 ... 30.9
O=C(CSc1nnc(-c2cccnc2SCc2ccccc2)o1)Nc1nc(Cl)cc(Cl)n1 ... 67.7
Cc1ccc2sc(-c3ccc(NC(=O)CSc4nnc(-c5cccnc5SCc5ccccc5)o4)cc3)nc2c1 ... 59.3

====

# System: NCI-H226
# protocol_text: Antitumor activity against human NCI-H226 cells assessed as cell growth at 0.1 uM
# Type: functional
# stated_conditions: read-out: Activity
Measured growth at 0.1 µM, listed per entry.
reported_property: growth at 0.1 µM (%)

Cc1cnc(NC(=O)CSc2nnc(-c3cccnc3SCc3ccccc3)o2)s1 ... 70.2
Cc1ccc2sc(-c3ccc(NC(=O)CSc4nnc(-c5cccnc5SCc5ccccc5)o4)cc3)nc2c1 ... 80.8
COc1cc(OC)nc(NC(=O)CSc2nnc(-c3cccnc3SCc3ccccc3)o2)n1 ... 101
O=C(CSc1nnc(-c2cccnc2SCc2ccccc2)o1)Nc1nc(Cl)cc(Cl)n1 ... 83.7
c1ccc(CSc2ncccc2-c2nnc(SCCN3CCOCC3)o2)cc1 ... 114

====

Below, each entry is listed with its recorded growth at 0.1 µM.
# Tested on: HCT-116
# protocol_text: Antitumor activity against human HCT116 cells assessed as cell growth at 0.1 uM
# Type: functional
# stated_conditions: read-out: Activity
reported_property: growth at 0.1 µM (%)

c1ccc(CSc2ncccc2-c2nnc(SCCN3CCOCC3)o2)cc1 ... 108
COc1cc(OC)nc(NC(=O)CSc2nnc(-c3cccnc3SCc3ccccc3)o2)n1 ... 101
CN1CCN(C(=O)CSc2nnc(-c3cccnc3SCc3ccccc3)o2)CC1 ... 94.7
Cc1ccc2sc(-c3ccc(NC(=O)CSc4nnc(-c5cccnc5SCc5ccccc5)o4)cc3)nc2c1 ... 95.4
Cc1cnc(NC(=O)CSc2nnc(-c3cccnc3SCc3ccccc3)o2)s1 ... 82.4
O=C(CSc1nnc(-c2cccnc2SCc2ccccc2)o1)Nc1nc(Cl)cc(Cl)n1 ... 97.2

====

# System: Candida albicans
# protocol_text: Antimicrobial activity against Candida albicans MTCC 227 assessed as growth inhibition measured after overnight incubation by broth dilution method
# Assay type: functional
MIC by entry:
reported_property: MIC

COC1=CC(=O)C[C@@H](C)[C@]12Oc1c(Cl)c(OC)cc(OC)c1C2=O ... 500 mg/L
CN1CCN(C(=O)CSc2nnc(-c3cccnc3SCc3ccccc3)o2)CC1 ... 500 mg/L
O=C(CSc1nnc(-c2cccnc2SCc2ccccc2)o1)Nc1nc(Cl)cc(Cl)n1 ... 1000 mg/L
Cc1cnc(NC(=O)CSc2nnc(-c3cccnc3SCc3ccccc3)o2)s1 ... 250 mg/L
S=c1[nH]nc(-c2cccnc2SCc2ccccc2)o1 ... 1000 mg/L
c1ccc(CSc2ncccc2-c2nnc(SCC3CO3)o2)cc1 (configuration not stated) ... 500 mg/L
O=C(CCl)Nc1nc(Cl)cc(Cl)n1 ... 250 mg/L
NNC(=O)c1cccnc1SCc1ccccc1 ... 500 mg/L
Cc1ccc2sc(-c3ccc(NC(=O)CSc4nnc(-c5cccnc5SCc5ccccc5)o4)cc3)nc2c1 ... 250 mg/L
CCOC(=O)CSc1nnc(-c2cccnc2SCc2ccccc2)o1 ... 1000 mg/L
COc1cc(OC)nc(NC(=O)CSc2nnc(-c3cccnc3SCc3ccccc3)o2)n1 ... 500 mg/L
c1ccc(CSc2ncccc2-c2nnc(SCCN3CCOCC3)o2)cc1 ... 1000 mg/L

====

# Test system: UACC-62
# protocol_text: Antitumor activity against human UACC62 cells assessed as cell growth at 0.1 uM
# Format: functional
# stated_conditions: read-out: Activity
reported_property: growth at 0.1 µM (%)

O=C(CSc1nnc(-c2cccnc2SCc2ccccc2)o1)Nc1nc(Cl)cc(Cl)n1 ... 101
c1ccc(CSc2ncccc2-c2nnc(SCCN3CCOCC3)o2)cc1 ... 113
COc1cc(OC)nc(NC(=O)CSc2nnc(-c3cccnc3SCc3ccccc3)o2)n1 ... 107
Cc1ccc2sc(-c3ccc(NC(=O)CSc4nnc(-c5cccnc5SCc5ccccc5)o4)cc3)nc2c1 ... 104
CN1CCN(C(=O)CSc2nnc(-c3cccnc3SCc3ccccc3)o2)CC1 ... 76.8
Cc1cnc(NC(=O)CSc2nnc(-c3cccnc3SCc3ccccc3)o2)s1 ... 71.7

====

# Test system: SK-OV-3
# protocol_text: Antitumor activity against human SKOV3 cells assessed as cell growth at 0.1 uM
# Type: functional
# stated_conditions: read-out: Activity
Below, each of the compounds is paired with its reported growth at 0.1 µM value.
reported_property: growth at 0.1 µM (%)

c1ccc(CSc2ncccc2-c2nnc(SCCN3CCOCC3)o2)cc1 ... 109
Cc1ccc2sc(-c3ccc(NC(=O)CSc4nnc(-c5cccnc5SCc5ccccc5)o4)cc3)nc2c1 ... 105
COc1cc(OC)nc(NC(=O)CSc2nnc(-c3cccnc3SCc3ccccc3)o2)n1 ... 103
Cc1cnc(NC(=O)CSc2nnc(-c3cccnc3SCc3ccccc3)o2)s1 ... 96.2
CN1CCN(C(=O)CSc2nnc(-c3cccnc3SCc3ccccc3)o2)CC1 ... 101
O=C(CSc1nnc(-c2cccnc2SCc2ccccc2)o1)Nc1nc(Cl)cc(Cl)n1 ... 110

====

# Test system: MDA-MB-435
# protocol_text: Antitumor activity against human MDA-MB-435 cells assessed as cell growth at 0.1 uM
# Assay type: functional
# stated_conditions: read-out: Activity
reported_property: growth at 0.1 µM (%)

Cc1ccc2sc(-c3ccc(NC(=O)CSc4nnc(-c5cccnc5SCc5ccccc5)o4)cc3)nc2c1 ... 107
c1ccc(CSc2ncccc2-c2nnc(SCCN3CCOCC3)o2)cc1 ... 114
COc1cc(OC)nc(NC(=O)CSc2nnc(-c3cccnc3SCc3ccccc3)o2)n1 ... 105
CN1CCN(C(=O)CSc2nnc(-c3cccnc3SCc3ccccc3)o2)CC1 ... 93.8
Cc1cnc(NC(=O)CSc2nnc(-c3cccnc3SCc3ccccc3)o2)s1 ... 96.5
O=C(CSc1nnc(-c2cccnc2SCc2ccccc2)o1)Nc1nc(Cl)cc(Cl)n1 ... 105
